# studyTarget: UniProt:P36888
# Sequence (P36888 whole entry): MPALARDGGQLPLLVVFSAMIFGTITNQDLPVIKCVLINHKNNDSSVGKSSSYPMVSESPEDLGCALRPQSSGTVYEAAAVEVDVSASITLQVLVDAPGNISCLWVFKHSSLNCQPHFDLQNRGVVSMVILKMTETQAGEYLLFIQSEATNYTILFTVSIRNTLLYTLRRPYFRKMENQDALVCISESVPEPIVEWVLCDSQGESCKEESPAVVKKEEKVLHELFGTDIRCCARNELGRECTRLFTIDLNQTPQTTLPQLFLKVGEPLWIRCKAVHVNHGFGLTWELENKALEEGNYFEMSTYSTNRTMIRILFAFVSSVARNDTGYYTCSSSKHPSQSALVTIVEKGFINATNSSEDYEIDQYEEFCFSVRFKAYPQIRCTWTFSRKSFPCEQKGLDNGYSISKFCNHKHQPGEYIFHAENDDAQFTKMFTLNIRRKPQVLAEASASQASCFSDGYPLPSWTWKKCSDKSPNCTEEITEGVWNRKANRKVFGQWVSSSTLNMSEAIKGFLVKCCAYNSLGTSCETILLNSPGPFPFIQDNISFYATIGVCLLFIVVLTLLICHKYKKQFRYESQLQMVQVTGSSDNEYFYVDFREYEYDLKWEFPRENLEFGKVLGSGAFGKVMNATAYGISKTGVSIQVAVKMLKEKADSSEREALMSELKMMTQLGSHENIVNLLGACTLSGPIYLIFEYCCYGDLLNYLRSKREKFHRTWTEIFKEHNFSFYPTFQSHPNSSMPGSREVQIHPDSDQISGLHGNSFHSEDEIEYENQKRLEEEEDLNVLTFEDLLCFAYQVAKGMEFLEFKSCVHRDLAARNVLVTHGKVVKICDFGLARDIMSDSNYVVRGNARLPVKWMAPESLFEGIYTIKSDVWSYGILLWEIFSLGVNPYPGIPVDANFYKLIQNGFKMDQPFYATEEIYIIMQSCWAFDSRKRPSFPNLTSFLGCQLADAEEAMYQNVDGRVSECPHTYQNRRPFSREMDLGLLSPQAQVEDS
propertyName: pKd
Numbers only, as −log10 of the molar value.

Query: For the molecule c1ccc(Cc2cnc(N3CCN(c4ncnc5ccccc45)CC3)nc2)cc1 , give its reported pKd.
Result: 6.34
